Experiment: Rotarod test for acute neurological toxicity
Conditions: mouse, in vivo, ip
observable: TD50 at 0.5 h

Consider the worked cases shown below.
| molecule | observable | value |
| --- | --- | --- |
| O=C(NCc1cccc(C(F)(F)F)c1)C(c1ccccc1)N1C(=O)CCC1=O (stereo not shown) [Compound 22] | TD50 at 0.5 h | > 300 mg/kg |
| O=C(Nc1cccc(Cl)c1)C(c1ccccc1)N1C(=O)CCC1=O (stereo not shown) [Compound 8] | TD50 at 0.5 h | > 300 mg/kg |
| O=C(Nc1ccccc1)C(c1ccccc1)N1C(=O)CCC1=O (stereo not shown) [Compound 3] | TD50 at 0.5 h | > 300 mg/kg |
| O=C(NCCc1ccccc1)C(c1ccccc1)N1C(=O)CCC1=O (stereo not shown) [Compound 25] | TD50 at 0.5 h | 210 mg/kg |
| O=C(NCCc1cccc(C(F)(F)F)c1)C(c1ccccc1)N1C(=O)CCC1=O (stereo not shown) [Compound 29] | TD50 at 0.5 h | 179 mg/kg |
| O=C(NCc1cccc(Cl)c1)C(c1ccccc1)N1C(=O)CCC1=O (stereo not shown) [Compound 19] | TD50 at 0.5 h | > 300 mg/kg |
| O=C(NCCc1ccc(Cl)cc1)C(c1ccccc1)N1C(=O)CCC1=O (stereo not shown) [Compound 28] | TD50 at 0.5 h | 272 mg/kg |
| O=C(NCc1cccc(OC(F)(F)F)c1)C(c1ccccc1)N1C(=O)CCC1=O (stereo not shown) [Compound 24] | TD50 at 0.5 h | > 300 mg/kg |

For O=C(Nc1ccc(F)cc1)C(c1ccccc1)N1C(=O)CCC1=O (stereo not shown) [Compound 6] , what is its reported TD50 at 0.5 h?
> 300 mg/kg

// repeat for O=C(NCc1ccccc1)C(c1ccccc1)N1C(=O)CCC1=O (stereo not shown) [Compound 14] and report
> 300 mg/kg

Would you kindly repeat that for O=C(NCc1ccccc1C(F)(F)F)C(c1ccccc1)N1C(=O)CCC1=O (stereo not shown) [Compound 21] ?
> 300 mg/kg

Moving on to O=C(NCCc1cccc(OC(F)(F)F)c1)C(c1ccccc1)N1C(=O)CCC1=O (stereo not shown) [Compound 30]
162 mg/kg

Next record, please: O=C(NCCc1cccc(Cl)c1)C(c1ccccc1)N1C(=O)CCC1=O (stereo not shown) [Compound 27]
> 300 mg/kg

Param item: O=C(NCCCc1ccccc1)C(c1ccccc1)N1C(=O)CCC1=O (stereo not shown) [Compound 31]
> 300 mg/kg

// next record O=C(Nc1ccc(Cl)cc1)C(c1ccccc1)N1C(=O)CCC1=O (stereo not shown) [Compound 9]
> 300 mg/kg

Next up: O=C(Nc1ccccc1F)C(c1ccccc1)N1C(=O)CCC1=O (stereo not shown) [Compound 4]
> 300 mg/kg

---

Test system: MES seizures, mice
Test: Maximal electroshock (MES) seizure test
Type: in vivo
Details: Mus musculus, ip, at TPE (0.5 h; LTG 1.0 h), 95% confidence intervals in parentheses
Classes are defined on ED50 with ranges class 1 = under 60 mg/kg, class 2 = from 60 mg/kg up to 90 mg/kg, class 3 = 90 mg/kg and over

Please review the following examples before continuing.
| molecule | label-value |
| --- | --- |
| O=C(Nc1cccc(Cl)c1)C(c1ccccc1)N1C(=O)CCC1=O (stereo not drawn) [Compound 8] | class 2 |
| Nc1nnc(-c2cccc(Cl)c2Cl)c(N)n1 [LTG, lamotrigine, reference compound] | class 1 |
| O=C(Nc1ccccc1)C(c1ccccc1)N1C(=O)CCC1=O (stereo not drawn) [Compound 3] | class 3 |

# classify by ED50 band: O=C(NCc1ccccc1)C(c1ccccc1)N1C(=O)CCC1=O (stereo not drawn) [Compound 14]
class 3

Same again, this time with O=C(Nc1ccccc1F)C(c1ccccc1)N1C(=O)CCC1=O (stereo not drawn) [Compound 4]
class 2

Try this molecule next: O=C(NCc1cccc(OC(F)(F)F)c1)C(c1ccccc1)N1C(=O)CCC1=O (stereo not drawn) [Compound 24]
class 3

---

// reported inhibition per item
Molecular target: Cav1.2 channel (Rattus norvegicus, UniProt P22002)
Construct: tissue Eurofins (Poitiers, France), contract assay; host or cells: rat cerebral cortex (own knowledge of the vendor's assay)
Sequence (P22002 whole entry): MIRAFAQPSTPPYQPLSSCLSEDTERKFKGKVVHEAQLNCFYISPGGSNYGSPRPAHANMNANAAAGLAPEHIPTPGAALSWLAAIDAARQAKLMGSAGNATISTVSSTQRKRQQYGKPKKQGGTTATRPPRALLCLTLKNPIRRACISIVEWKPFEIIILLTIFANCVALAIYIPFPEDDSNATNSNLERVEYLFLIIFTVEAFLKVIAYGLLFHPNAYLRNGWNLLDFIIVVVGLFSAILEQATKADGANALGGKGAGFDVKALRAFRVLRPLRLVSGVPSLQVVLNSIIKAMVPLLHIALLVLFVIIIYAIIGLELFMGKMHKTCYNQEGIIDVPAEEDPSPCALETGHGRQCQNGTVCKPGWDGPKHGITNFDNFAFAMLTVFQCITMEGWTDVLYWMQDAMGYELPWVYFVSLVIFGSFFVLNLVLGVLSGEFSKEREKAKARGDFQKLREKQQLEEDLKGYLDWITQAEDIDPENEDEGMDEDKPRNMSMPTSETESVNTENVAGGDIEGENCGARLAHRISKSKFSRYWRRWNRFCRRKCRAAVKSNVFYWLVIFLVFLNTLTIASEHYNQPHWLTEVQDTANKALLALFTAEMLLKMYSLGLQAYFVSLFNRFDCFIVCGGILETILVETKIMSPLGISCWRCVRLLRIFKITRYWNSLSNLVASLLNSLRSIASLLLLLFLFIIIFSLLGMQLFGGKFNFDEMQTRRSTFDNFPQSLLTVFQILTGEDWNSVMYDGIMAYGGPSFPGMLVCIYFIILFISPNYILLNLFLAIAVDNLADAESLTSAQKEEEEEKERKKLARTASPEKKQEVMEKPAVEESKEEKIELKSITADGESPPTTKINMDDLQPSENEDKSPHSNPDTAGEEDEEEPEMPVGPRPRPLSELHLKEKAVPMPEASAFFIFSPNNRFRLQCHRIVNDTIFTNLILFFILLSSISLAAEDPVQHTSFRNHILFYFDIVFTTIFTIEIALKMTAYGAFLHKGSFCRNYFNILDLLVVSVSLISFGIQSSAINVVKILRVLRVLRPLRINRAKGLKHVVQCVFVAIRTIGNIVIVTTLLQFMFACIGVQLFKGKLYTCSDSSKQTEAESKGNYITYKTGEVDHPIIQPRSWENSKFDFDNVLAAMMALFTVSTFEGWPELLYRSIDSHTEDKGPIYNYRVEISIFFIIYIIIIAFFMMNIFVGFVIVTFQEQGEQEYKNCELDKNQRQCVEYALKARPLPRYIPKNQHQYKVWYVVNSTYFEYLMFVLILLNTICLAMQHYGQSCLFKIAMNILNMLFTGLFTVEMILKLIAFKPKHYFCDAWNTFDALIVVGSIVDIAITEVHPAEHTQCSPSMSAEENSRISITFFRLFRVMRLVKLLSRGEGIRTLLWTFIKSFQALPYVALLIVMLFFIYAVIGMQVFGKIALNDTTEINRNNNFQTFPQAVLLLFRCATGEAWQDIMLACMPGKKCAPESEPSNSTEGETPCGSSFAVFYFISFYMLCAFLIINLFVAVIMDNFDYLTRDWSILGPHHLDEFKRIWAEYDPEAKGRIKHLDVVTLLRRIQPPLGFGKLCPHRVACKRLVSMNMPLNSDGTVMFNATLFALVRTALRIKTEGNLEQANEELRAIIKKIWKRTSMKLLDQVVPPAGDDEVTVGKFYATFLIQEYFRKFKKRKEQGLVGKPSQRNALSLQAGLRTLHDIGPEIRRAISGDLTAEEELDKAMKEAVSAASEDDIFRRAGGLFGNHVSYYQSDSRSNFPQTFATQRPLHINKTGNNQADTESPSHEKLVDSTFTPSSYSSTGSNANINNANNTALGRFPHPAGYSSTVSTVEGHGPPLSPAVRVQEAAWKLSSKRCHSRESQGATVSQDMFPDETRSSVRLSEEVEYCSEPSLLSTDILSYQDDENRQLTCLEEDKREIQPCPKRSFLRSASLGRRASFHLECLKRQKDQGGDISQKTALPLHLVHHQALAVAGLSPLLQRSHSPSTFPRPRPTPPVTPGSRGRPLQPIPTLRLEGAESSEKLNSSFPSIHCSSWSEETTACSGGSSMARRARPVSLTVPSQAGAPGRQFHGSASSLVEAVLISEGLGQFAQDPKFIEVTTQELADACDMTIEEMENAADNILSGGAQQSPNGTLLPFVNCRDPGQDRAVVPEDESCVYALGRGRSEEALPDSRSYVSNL
Sequence (P54287 whole entry partner): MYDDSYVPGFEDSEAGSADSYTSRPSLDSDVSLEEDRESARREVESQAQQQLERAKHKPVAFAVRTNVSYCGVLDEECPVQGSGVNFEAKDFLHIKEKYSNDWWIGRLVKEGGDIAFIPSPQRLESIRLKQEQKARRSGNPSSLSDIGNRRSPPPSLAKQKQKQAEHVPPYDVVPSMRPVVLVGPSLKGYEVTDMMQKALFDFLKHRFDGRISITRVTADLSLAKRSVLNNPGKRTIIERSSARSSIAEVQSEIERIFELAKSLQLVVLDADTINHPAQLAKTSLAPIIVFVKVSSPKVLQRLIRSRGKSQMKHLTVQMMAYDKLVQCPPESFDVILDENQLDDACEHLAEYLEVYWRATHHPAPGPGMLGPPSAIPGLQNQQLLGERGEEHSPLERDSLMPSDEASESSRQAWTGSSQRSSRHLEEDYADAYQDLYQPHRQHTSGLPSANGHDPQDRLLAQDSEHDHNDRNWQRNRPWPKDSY
Sequence (P54290 25-944 partner limits assumed): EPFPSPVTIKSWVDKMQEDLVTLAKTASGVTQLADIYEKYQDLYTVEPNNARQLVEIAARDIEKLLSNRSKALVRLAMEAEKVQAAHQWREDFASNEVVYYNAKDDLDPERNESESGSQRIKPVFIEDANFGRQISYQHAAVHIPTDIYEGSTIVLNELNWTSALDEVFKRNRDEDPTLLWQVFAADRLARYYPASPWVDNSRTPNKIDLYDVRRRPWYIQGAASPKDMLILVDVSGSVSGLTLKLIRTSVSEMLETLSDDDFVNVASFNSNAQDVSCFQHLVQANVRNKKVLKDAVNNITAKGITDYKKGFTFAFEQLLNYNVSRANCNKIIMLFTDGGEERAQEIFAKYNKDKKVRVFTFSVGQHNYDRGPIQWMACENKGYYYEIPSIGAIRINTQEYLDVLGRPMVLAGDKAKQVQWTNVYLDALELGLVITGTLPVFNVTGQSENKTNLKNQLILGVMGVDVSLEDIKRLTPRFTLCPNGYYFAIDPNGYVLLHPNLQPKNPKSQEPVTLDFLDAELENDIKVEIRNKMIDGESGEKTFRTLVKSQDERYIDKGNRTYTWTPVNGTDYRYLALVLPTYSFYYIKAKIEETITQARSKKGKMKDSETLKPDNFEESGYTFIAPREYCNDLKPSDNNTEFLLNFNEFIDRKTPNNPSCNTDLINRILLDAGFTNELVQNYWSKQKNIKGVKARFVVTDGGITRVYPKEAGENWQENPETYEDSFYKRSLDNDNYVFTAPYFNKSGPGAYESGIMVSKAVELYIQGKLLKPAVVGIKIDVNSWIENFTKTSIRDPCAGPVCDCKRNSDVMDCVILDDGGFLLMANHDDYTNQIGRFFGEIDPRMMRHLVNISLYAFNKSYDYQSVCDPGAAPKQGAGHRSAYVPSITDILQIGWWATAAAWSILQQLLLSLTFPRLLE
Sequence (P54290 945-1091 partner limits assumed): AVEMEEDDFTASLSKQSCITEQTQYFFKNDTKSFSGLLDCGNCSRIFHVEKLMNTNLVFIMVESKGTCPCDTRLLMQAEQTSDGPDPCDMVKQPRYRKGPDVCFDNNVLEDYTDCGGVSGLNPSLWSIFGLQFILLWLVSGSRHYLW
Experiment: Radioligand binding, Cav1.2 channel
Set-up: dose or concentration left out as unconfirmed
Settings: rat cerebral cortex; read-out: % Inhibition of Control Specific Binding, Cav1.2 Channel (Antagonist Radioligand)
Give your result in % as a bare value.

| compound | inhibition / % |
| --- | --- |
| O=C(NCc1ccccc1C(F)(F)F)C(c1ccccc1)N1C(=O)CCC1=O (centres unmarked) [Compound 21] | 26.6 |

Please examine the following record next.
Item: O=C(NCc1cccc(OC(F)(F)F)c1)C(c1ccccc1)N1C(=O)CCC1=O (centres unmarked) [Compound 24] Test system: Cav1.2 channel (Rattus norvegicus, UniProt P22002) Read-out: inhibition Value: ?
36.5

---

Tested on: Na+ channel (site 2)
Experiment: Radioligand binding, Na+ channel (site 2)
Settings: 10 µM; rat cerebral cortex
observable: % Inhibition of Control Specific Binding, Na+ Channel (Site 2) (Antagonist Radioligand)

| compound | value |
| --- | --- |
| O=C(NCCc1cccc(C(F)(F)F)c1)C(c1ccccc1)N1C(=O)CCC1=O (centres unmarked) | 18.3% |
| O=C(NCCc1cccc(Cl)c1)C(c1ccccc1)N1C(=O)CCC1=O (centres unmarked) | 20.1% |
| O=C(NCc1cccc(OC(F)(F)F)c1)C(c1ccccc1)N1C(=O)CCC1=O (centres unmarked) | 22.3% |
| O=C(NCCc1cccc(OC(F)(F)F)c1)C(c1ccccc1)N1C(=O)CCC1=O (centres unmarked) | 15.8% |
| O=C(NCc1ccccc1C(F)(F)F)C(c1ccccc1)N1C(=O)CCC1=O (centres unmarked) | 18.8% |

// returns reported % Inhibition of Control Specific Binding, Na+ Channel (Site 2) (Antagonist Radioligand) for input O=C(Nc1ccccc1)C(c1ccccc1)N1C(=O)CCC1=O (centres unmarked)
10.8%

Same read-out for O=C(NCCc1ccccc1)C(c1ccccc1)N1C(=O)CCC1=O (centres unmarked) ?
14.8%

One more compound: O=C(Nc1ccccc1F)C(c1ccccc1)N1C(=O)CCC1=O (centres unmarked)
23.5%

---

Each record here notes measured Rotarod test, number of mice / number of mice tested.
Tested on: motor coordination of mice
Assay: Rotarod test for acute neurological toxicity
Conditions: mice, i.p., 100 mg/kg, 0.5 h

| compound | value |
| --- | --- |
| O=C(NCCc1ccc(Cl)cc1)C(c1ccccc1)N1C(=O)CCC1=O (stereo not drawn) [Compound 28] | 1/4 |
| O=C(Nc1cccc(Cl)c1)C(c1ccccc1)N1C(=O)CCC1=O (stereo not drawn) [Compound 8] | 0/4 |
| O=C(NCc1cccc(C(F)(F)F)c1)C(c1ccccc1)N1C(=O)CCC1=O (stereo not drawn) [Compound 22] | 0/4 |
| O=C(NCc1cccc(OC(F)(F)F)c1)C(c1ccccc1)N1C(=O)CCC1=O (stereo not drawn) [Compound 24] | 0/4 |
| O=C(NCCc1cccc(OC(F)(F)F)c1)C(c1ccccc1)N1C(=O)CCC1=O (stereo not drawn) [Compound 30] | 0/4 |

Form field - read-out: Rotarod test, number of mice / number of mice tested; system: motor coordination of mice; submitted item: O=C(NCCc1cccc(C(F)(F)F)c1)C(c1ccccc1)N1C(=O)CCC1=O (stereo not drawn) [Compound 29]
0/4

Quick one: O=C(NCCCc1ccccc1)C(c1ccccc1)N1C(=O)CCC1=O (stereo not drawn) [Compound 31]
0/4

Record: O=C(NCCc1ccccc1)C(c1ccccc1)N1C(=O)CCC1=O (stereo not drawn) [Compound 25]
1/4

// same read-out, input: O=C(NCc1ccccc1C(F)(F)F)C(c1ccccc1)N1C(=O)CCC1=O (stereo not drawn) [Compound 21]
0/4

---

Target: GABA-A receptor (α1,β2,γ2) (Homo sapiens, UniProt P14867+P47870)
Construct: Eurofins (Poitiers, France), contract assay
Sequence (P14867 28-456): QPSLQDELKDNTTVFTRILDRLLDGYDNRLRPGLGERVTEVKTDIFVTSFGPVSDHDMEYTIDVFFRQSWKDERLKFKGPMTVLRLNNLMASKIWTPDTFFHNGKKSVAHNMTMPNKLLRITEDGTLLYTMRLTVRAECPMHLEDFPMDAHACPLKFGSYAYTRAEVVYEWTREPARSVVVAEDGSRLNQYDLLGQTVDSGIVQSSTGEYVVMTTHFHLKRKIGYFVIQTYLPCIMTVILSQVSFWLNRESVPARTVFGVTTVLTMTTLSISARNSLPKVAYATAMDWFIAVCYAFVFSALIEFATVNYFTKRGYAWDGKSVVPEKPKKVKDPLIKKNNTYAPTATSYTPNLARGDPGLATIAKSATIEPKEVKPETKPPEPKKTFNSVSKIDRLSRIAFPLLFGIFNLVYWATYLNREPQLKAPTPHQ
Sequence (P47870 25-512 limits assumed): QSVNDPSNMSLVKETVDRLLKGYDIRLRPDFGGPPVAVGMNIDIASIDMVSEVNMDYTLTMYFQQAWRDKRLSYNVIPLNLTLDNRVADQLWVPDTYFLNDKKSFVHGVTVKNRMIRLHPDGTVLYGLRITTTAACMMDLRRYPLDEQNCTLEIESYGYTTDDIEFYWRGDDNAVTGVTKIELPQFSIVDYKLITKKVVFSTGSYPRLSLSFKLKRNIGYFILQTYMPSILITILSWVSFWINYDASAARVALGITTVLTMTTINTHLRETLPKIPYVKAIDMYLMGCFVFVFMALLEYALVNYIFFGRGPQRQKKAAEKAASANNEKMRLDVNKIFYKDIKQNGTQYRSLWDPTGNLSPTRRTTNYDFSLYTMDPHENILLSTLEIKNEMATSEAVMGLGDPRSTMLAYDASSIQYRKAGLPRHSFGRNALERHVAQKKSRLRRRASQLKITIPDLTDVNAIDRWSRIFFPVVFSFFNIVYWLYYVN
Sequence (P18507 40-475 partner): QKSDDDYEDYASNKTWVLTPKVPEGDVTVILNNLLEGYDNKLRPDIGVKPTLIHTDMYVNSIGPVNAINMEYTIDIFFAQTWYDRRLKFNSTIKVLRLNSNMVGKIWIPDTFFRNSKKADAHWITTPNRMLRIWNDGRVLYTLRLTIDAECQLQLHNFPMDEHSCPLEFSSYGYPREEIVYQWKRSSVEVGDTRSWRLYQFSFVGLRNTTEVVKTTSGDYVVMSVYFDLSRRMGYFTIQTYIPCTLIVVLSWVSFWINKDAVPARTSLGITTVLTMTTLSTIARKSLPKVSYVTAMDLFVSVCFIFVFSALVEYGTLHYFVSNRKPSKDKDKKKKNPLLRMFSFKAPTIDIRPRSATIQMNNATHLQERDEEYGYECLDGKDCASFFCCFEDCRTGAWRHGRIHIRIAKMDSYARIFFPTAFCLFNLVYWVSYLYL
Test: Radioligand binding, GABA-A receptor
Set-up: dose or concentration left out as unconfirmed
Details: rat cerebral cortex; read-out: % Inhibition of Control Specific Binding, GABA-A Receptor (α1,β2,γ2) (Agonist Radioligand)
observable: inhibition (%)
Give just the numeric value; % need not be written.

In the examples that follow, each entry is paired with its recorded inhibition.
| compound | target-of-assay | inhibition [%] |
| --- | --- | --- |
| O=C(Nc1ccccc1F)C(c1ccccc1)N1C(=O)CCC1=O (centres unmarked) [Compound 4] | GABA-A receptor (α1,β2,γ2) (Homo sapiens, UniProt P14867+P47870) | 2.8 |
| O=C(NCCc1ccccc1)C(c1ccccc1)N1C(=O)CCC1=O (centres unmarked) [Compound 25] | GABA-A receptor (α1,β2,γ2) (Homo sapiens, UniProt P14867+P47870) | 3.6 |
| O=C(NCCc1cccc(OC(F)(F)F)c1)C(c1ccccc1)N1C(=O)CCC1=O (centres unmarked) [Compound 30] | GABA-A receptor (α1,β2,γ2) (Homo sapiens, UniProt P14867+P47870) | 0.3 |
| O=C(Nc1ccccc1)C(c1ccccc1)N1C(=O)CCC1=O (centres unmarked) [Compound 3] | GABA-A receptor (α1,β2,γ2) (Homo sapiens, UniProt P14867+P47870) | 5.2 |
| O=C(NCCc1cccc(C(F)(F)F)c1)C(c1ccccc1)N1C(=O)CCC1=O (centres unmarked) [Compound 29] | GABA-A receptor (α1,β2,γ2) (Homo sapiens, UniProt P14867+P47870) | 2.1 |

Fill in: inhibition of O=C(NCc1ccccc1C(F)(F)F)C(c1ccccc1)N1C(=O)CCC1=O (centres unmarked) [Compound 21] is ___
1.2

Can you handle O=C(NCCc1cccc(Cl)c1)C(c1ccccc1)N1C(=O)CCC1=O (centres unmarked) [Compound 27] next?
0.7

Follow-up item: O=C(NCc1cccc(OC(F)(F)F)c1)C(c1ccccc1)N1C(=O)CCC1=O (centres unmarked) [Compound 24]
-0.8

These data points were gathered from paper PMC7699745.
